targetOrTestSystem: T-cell receptor (TCR)-CD3 interaction, human (TCR alpha chain TRAV4)
test: potency of TCR-CD3 interaction inhibitors, dose response, biochemical, fluorescence, TAMRA-labeled TCR probe (AID 686957)
conditions: TCR-CD3 binding
The source made the active and inactive calls. How the calls were made is not given here.
Assignment: determine reported IC50 for the given compounds.

Lab book: IC50 of COc1ccc(C(=O)NNC(=S)NC(=O)c2cccs2)cc1 noted as > 94 µM (inactive)

Lab book: IC50 of O=C(CSc1nnc(-c2ccccc2O)n1Cc1ccccc1)NNC(=O)c1ccccc1O noted as > 94.1 µM (inactive)

Lab book: IC50 of O=C(O)c1c[nH]c2c([N+](=O)[O-])cccc2c1=O noted as > 31.3 µM (inactive)

Lab book: IC50 of Cc1cc(C(=O)N/N=C/c2cc(Br)cc([N+](=O)[O-])c2O)c2ccccc2n1 noted as > 94.1 µM (inactive)

Lab book: IC50 of O=C(NNC(=O)c1ccc2ccccc2c1O)Nc1ccc(F)cc1 noted as > 94.1 µM (inactive)

Continue with the next compound.
Lab book: IC50 of O=C(CCl)NNC(=O)c1c(O)c2ccccc2[nH]c1=O noted as > 94 µM (inactive)

Source of measurements: PubChem BioAssay AID686957
